Listed compounds paired with reported pKi
target of assay: Tyrosine-protein phosphatase non-receptor type 1 (Homo sapiens)
Sequence (P18031 whole entry): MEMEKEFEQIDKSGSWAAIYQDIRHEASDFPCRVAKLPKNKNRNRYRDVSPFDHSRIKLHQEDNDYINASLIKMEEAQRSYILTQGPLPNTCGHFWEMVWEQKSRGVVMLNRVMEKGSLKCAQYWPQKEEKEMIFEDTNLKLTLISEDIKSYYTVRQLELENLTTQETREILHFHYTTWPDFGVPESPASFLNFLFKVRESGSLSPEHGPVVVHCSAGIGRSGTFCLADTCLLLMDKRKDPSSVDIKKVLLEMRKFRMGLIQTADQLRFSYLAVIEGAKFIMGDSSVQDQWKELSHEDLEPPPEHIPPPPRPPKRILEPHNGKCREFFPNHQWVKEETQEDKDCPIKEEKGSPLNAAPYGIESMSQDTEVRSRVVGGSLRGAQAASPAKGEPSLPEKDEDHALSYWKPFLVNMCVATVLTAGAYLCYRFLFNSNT
measurement protocol: Inhibition of human recombinant PTP1B expressed in Escherichia coli TB1 by double reciprocal plot analysis
pKi: −log10 of the molar value.

compound structure | pKi
CCOc1ccc2nc(NS(=O)(=O)c3ccc([N+](=O)[O-])cc3)sc2c1 | 4.69
Cc1ccc2nc(NS(=O)(=O)c3ccc([N+](=O)[O-])cc3)sc2c1 | 5.15
